Task for the reader: assign each of the following binders its reported A549 cells endogenous human PAPP-A pIC50 (A549 pAKT assay).
- System: endogenous human PAPPA natively secreted by human cells (A549; 9-7) (human, UniProt Q13219 82-1627)
- Sequence (Q13219 82-1627 limits assumed): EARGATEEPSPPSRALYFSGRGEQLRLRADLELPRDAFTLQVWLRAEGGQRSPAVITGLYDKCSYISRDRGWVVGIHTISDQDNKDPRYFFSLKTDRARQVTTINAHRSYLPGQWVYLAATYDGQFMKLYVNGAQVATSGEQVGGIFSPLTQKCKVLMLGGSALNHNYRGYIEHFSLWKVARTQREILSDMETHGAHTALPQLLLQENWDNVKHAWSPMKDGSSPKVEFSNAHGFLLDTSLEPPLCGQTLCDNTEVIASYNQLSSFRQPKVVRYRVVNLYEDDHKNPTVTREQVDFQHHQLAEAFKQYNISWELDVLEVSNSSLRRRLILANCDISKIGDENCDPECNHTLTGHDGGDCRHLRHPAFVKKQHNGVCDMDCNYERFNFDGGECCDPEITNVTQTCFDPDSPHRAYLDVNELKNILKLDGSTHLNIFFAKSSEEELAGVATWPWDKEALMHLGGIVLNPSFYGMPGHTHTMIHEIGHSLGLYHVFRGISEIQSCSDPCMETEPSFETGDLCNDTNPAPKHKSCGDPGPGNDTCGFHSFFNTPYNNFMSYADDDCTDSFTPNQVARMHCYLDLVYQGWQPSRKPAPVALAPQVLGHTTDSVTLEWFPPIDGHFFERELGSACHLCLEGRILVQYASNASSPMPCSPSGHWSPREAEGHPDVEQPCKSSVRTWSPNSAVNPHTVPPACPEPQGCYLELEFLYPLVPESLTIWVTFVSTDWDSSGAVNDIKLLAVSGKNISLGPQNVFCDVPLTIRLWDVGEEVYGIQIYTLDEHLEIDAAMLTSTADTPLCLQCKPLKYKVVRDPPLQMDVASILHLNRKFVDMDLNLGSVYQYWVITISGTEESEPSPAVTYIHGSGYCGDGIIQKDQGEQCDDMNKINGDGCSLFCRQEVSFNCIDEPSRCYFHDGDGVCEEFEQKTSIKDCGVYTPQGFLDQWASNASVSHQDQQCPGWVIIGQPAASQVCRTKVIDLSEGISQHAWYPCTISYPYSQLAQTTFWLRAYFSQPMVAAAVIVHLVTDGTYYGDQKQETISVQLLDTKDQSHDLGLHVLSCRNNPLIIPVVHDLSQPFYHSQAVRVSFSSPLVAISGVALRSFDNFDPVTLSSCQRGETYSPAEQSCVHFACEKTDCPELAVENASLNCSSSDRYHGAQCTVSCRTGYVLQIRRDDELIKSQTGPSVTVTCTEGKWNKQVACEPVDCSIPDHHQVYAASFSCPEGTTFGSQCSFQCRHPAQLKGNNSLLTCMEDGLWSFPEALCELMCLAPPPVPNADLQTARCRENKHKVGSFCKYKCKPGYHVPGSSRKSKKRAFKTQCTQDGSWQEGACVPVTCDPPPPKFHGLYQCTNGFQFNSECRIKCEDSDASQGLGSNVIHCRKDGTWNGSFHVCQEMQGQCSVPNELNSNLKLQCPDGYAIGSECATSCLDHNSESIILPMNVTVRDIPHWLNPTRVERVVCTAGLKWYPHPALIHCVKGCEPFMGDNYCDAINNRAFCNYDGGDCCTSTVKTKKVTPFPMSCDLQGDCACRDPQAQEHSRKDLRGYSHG
- Assay Procedure: cell-based or functional assay
Numbers only, in pIC50.

The following binders have reported results that may help.
>  <Binder>
TPP-12743 (antibody, human IgG1, kappa, V domains shown) VH: QVQLVQSGAEVKKPGASVKVSCKASGYTFTSYAMHWVRQAPGQRLEWMGWMNAGTGATKSSQKFQGRVTITRDTSASTAYMELSSLRSEDTAVYYCARGPSLETPTTFGMDVWGQGTTVTVSS VL: DIQMTQSPSSVSASVGDRVTITCRASQGISRWLAWYQQKPGKAPKLLIYAASSLQSGVPSRFSGSGSGTDFTLTISSLQPEDFATYYCQQENAYPFTFGGGTKVEIKR

>  <Unit Abbrev>
pIC50

>  <Quantitative Readout>
9.76

$$$$
>  <Binder>
TPP-12821 (antibody, human IgG1, kappa, V domains shown) VH: EVQLVQSGAEVKKPGESLKISCKGSGYSFTSDWIGWVRQAPGKGLEWMGIIYPGGSDTRYSPSFRGQVTISADKSISTAYLQWSSLKASDTAVYYCARGPLRSDYVDVWGQGTMVTVSS VL: EIVMTQSPATLSVSPGERATLSCRASQSVGSNLAWYQQKPGQAPRLLIYRASTRATGIPARFSGSGSGTEFTLTISSLQSEDFAVYYCQQPYVWPITFGGGTKVEIKR

>  <Unit Abbrev>
pIC50

>  <Quantitative Readout>
9.5

$$$$
>  <Binder>
TPP-12708 (antibody, human IgG1, kappa, V domains shown) VH: QVQLVQSGAEVKKPGASVKVSCKASGYTFTSYAMHWVRQAPGQRLEWMGWINAGTGATKYARKFQGRVTITRDTSASTAYMELSSLRSEDTAVYYCARGPSMETPTTYGMEVWGQGTTVTVSS VL: DIQMTQSPSSVSASVGDRVTITCRASQGISRWLAWYQQKPGKAPKLLIYSTSSLQLGVPSRFSGSGSGTDFTLTISSLQPEDFATYYCQQENDYPFTFGGGTKVEIKR

>  <Unit Abbrev>
pIC50

>  <Quantitative Readout>
9.86

$$$$

With those in mind, consider the next binder.
What the record says about TPP-12683 (antibody, human IgG1, kappa, V domains shown) VH: QLQLQESGPGLVKPSETLSLTCTVSGGSISSSSYNWGWIRQPPGKGLEWIGSISSSGSTYFNPSLKSRVTISVDTSKNQFSLKLSSVTAADTAVYYCARSGYRPSFYAMDAWGQGTTVTVSS VL: DIQLTQSPSSVSASVGDRVTITCRASQDISYWLAWYQQKPGKAPKLLIYAASSLQSGVPSRFSGSGSGTDFTLTISSLQPEDFATYYCQQAYLLHTFGGGTKVEIKR : A549 cells endogenous human PAPP-A pIC50 (A549 pAKT assay) is 8.44
